Target: PD-1/PD-L1 (Homo sapiens)
Construct: 60535 (PD-1/NFAT-Reporter-Jurkat); Jurkat cells expressing PD-1
Assay: Detection of biological activity of PD-1/PD-L1 signaling inhibition at the cellular level (NFAT luciferase reporter, PD-1/NFAT-Reporter-Jurkat cells co-cultured with TCR activator/PD-L1-CHO cells)
Settings: PD-1/NFAT-Reporter-Jurkat + TCR activator/PD-L1-CHO co-culture, 6 hours; Atezolizumab as positive control
pEC50: −log10 of the molar value.
metric: pEC50

I = COc1cc(Cn2ncc3c(-c4cccc(-c5cc(F)c(CNC[C@H]6CCC(=O)N6)c(OC)c5)c4Cl)cccc32)c(Cl)cc1CN(C)C12CCC(C(=O)O)(CC1)CC2
II = COc1cc(Cn2ncc3c(-c4cccc(-c5cc(F)c(CNC[C@@H]6CCC(=O)N6)c(OC)c5)c4Cl)cccc32)c(Cl)cc1CN(C)[C@H]1C[C@H](C(=O)O)C1
Compare I and II and name the one whose reported pEC50 is smaller. Give the label under which the chosen entry appears. I

* * *

Molecular target: PD-1/PD-L1 (Homo sapiens, UniProt Q9NZQ7)
Construct: 60535 (PD-1/NFAT-Reporter-Jurkat); Jurkat cells expressing PD-1
Sequence (Q9NZQ7 19-290): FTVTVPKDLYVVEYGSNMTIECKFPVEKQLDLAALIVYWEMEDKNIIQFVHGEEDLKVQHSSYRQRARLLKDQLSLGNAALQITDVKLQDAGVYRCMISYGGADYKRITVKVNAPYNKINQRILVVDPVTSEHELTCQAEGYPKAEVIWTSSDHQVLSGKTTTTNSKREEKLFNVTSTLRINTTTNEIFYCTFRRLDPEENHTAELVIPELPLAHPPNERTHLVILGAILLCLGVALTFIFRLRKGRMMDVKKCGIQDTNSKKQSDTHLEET
Experiment: Detection of biological activity of PD-1/PD-L1 signaling inhibition at the cellular level (NFAT luciferase reporter, PD-1/NFAT-Reporter-Jurkat cells co-cultured with TCR activator/PD-L1-CHO cells)
Conditions: PD-1/NFAT-Reporter-Jurkat + TCR activator/PD-L1-CHO co-culture, 6 hours; Atezolizumab as positive control
pEC50: −log10 of the molar value.
metric: pEC50

| compound | pEC50 |
| --- | --- |
| COc1cc(Cn2ncc3c(-c4cccc(-c5ccc(CNC[C@@H]6CCC(=O)N6)cc5)c4Cl)cccc32)c(Cl)cc1CNC1CCC(C(=O)O)CC1 (some centres unmarked) [Compound 40] | 6.67 |
| COc1cc(-c2cccc(-c3ccc(Cl)c4c3cnn4Cc3cc(OC)c(CN[C@@H](CO)C(=O)O)cc3Cl)c2Cl)ccc1CNC[C@@H]1CCC(=O)N1 | 6.00 |
| COc1cc(Cn2ncc3c(-c4cccc(-c5cc(F)c(CNC[C@@H]6CCC(=O)N6)c(OC)c5)c4Cl)cccc32)c(Cl)cc1CN(C)[C@H]1CC[C@H](/C=C/C(=O)O)CC1 | 7.64 |

1 = COc1cc(-c2cccc(-c3cccc4c3cnn4Cc3cc(OC)c(CN(C)C45CCC(C(=O)O)(CC4)CC5)cc3Cl)c2Cl)ccc1CNC[C@@H]1CCC(=O)N1
2 = COc1cc(Cn2ncc3c(-c4cccc(-c5cc(F)c(CNC[C@@H]6CCC(=O)N6)c(OC)c5)c4Cl)cccc32)c(Cl)cc1CN(C)[C@H]1CC[C@H](CCC(=O)O)CC1
3 = COc1cc(Cn2ncc3c(-c4cccc(-c5ccc(CNC[C@@H]6CCC(=O)N6)c(OC(C)C)c5)c4Cl)cccc32)c(Cl)cc1CN(C)CC1CCC(C(=O)O)CC1 (some centres unmarked)
4 = COc1nc(Cn2ncc3c(-c4cccc(-c5ccc(CNC[C@@H]6CCC(=O)N6)cc5)c4Cl)cccc32)c(Cl)cc1CN[C@@H](CO)C(=O)O
5 = COc1cc(-c2cccc(-c3cccc4c3cnn4Cc3cc(OC)c(CN(C)CC4CCC(C(=O)O)CC4)cc3C)c2Cl)ccc1CNC[C@@H]1CCC(=O)N1 (some centres unmarked)
Put the items in sequence by pEC50, from largest down. As an answer, provide the labels arranged in the order called for. 1, 2, 5, 4, 3
(1: 7.70, 2: 7.40, 5: 6.73, 4: 6.52, 3: 6.28)
